biological target: BCAT2 (Homo sapiens, UniProt O15382); assay: BCAT2 in vitro enzyme inhibition assay (resazurin/diaphorase-coupled fluorescence); assay type: biochemical; conditions: average where tested multiple times
Sequence (O15382 28-392): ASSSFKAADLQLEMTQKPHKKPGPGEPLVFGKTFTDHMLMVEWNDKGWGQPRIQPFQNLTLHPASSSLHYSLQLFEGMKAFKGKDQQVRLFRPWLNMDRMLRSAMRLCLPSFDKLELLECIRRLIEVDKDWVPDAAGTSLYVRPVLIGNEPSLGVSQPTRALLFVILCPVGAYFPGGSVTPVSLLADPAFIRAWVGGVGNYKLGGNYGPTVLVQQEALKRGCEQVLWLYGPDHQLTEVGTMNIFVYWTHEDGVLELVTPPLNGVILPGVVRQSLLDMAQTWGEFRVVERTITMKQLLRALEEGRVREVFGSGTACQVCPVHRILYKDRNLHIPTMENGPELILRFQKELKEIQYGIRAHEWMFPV
pIC50: −log10 of the molar value.
Assignment: determine reported pIC50 for the given compounds.

Sample records with pIC50:
{"compound": "O=C(N[C@H]1CCC[C@@H](n2c(C3CNCCO3)nc3cnc(-c4nc[nH]n4)cc32)C1)c1ncc(Cl)s1 (stereo partly drawn) [Example 174]", "measurement.label": "pIC50", "recorded.measurement": "< 6.00"}
{"compound": "CO[C@H]1C[C@H](NC(=O)c2ncc(Cl)s2)C[C@H](n2c(-c3ccccc3F)nc3cnc(-n4cncn4)cc32)C1 (stereo in doubt) [Example 415]", "measurement.label": "pIC50", "recorded.measurement": "< 6.00"}
{"compound": "O=C(N[C@H]1CCC[C@@H](n2c(-c3ccccc3F)nc3cnc(-c4cnn[nH]4)cc32)C1)c1ncc(Cl)s1 [Example 189]", "measurement.label": "pIC50", "recorded.measurement": "≥ 7.00"}
{"compound": "O=C(NC1CCCC(n2c(-c3ccccn3)nc3cc(-c4nnco4)ncc32)C1)c1ccc(Br)s1 (stereo not drawn) [Example 157]", "measurement.label": "pIC50", "recorded.measurement": "≥ 7.00"}

Below are 2 compounds. Give each one its pIC50.
1. COC(c1nc2cnc(-c3nc[nH]n3)cc2n1[C@@H]1CCC[C@H](NC(=O)c2ncc(Cl)s2)C1)C(C)C (stereo partly drawn) [Example 314]
2. CC(C)Cc1nc2cnc(-c3ccn(C(F)F)n3)cc2n1[C@@H]1CC(O)C[C@H](NC(=O)c2ncc(Cl)s2)C1 (stereo in doubt) [Example 213]

["≥ 7.00", "≥ 7.00"]

// input: 6 compounds below; output: pIC50 for each
1. CNC(=O)c1cc2nc(CC(C)C)n([C@@H]3CCC[C@H](NC(=O)c4ncc(Cl)s4)[C@H]3O)c2cn1 (single isomer, unassigned) [Example 280]
2. O=C(NC1COCC(n2c(-c3ccccn3)nc3cnc(-n4ccnn4)cc32)C1)c1ncc(C(F)F)s1 (single isomer, unassigned) [Example 147]
3. Cc1cccnc1-c1cc2c(cn1)nc(-c1ccccc1F)n2[C@@H]1CCC[C@H](NC(=O)c2ncc(Cl)s2)C1 [Example 161]
4. CC(C)Cc1nc2cnc(-n3nccn3)cc2n1[C@H]1CCC[C@@H](NC(=O)c2ncc(Cl)s2)[C@@H]1O [Example 228]
5. COCCOc1ccccc1-c1nc2cnc(-c3nc[nH]n3)cc2n1[C@@H]1CCC[C@H](NC(=O)c2ncc(Cl)s2)C1 [Example 464]
6. CC(C)Cc1nc2cnc(-n3cc(F)cn3)cc2n1[C@H]1CCC[C@@H](NC(=O)c2ncc(Cl)s2)[C@@H]1O [Example 231]

1. ≥ 7.00
2. < 6.00
3. ≥ 7.00
4. < 6.00
5. ≥ 7.00
6. < 6.00
